The measured values listed here are drawn from patent US12162890B2.

TESTED_SYSTEM: HEK293 cells with stable expression of the GRIN1 gene and tetracycline-inducible expression of the GRIN2B gene (NMDA receptor, NR2B) (Homo sapiens, UniProt Q13224)
Sequence (Q13224 27-1484, other chains not shown): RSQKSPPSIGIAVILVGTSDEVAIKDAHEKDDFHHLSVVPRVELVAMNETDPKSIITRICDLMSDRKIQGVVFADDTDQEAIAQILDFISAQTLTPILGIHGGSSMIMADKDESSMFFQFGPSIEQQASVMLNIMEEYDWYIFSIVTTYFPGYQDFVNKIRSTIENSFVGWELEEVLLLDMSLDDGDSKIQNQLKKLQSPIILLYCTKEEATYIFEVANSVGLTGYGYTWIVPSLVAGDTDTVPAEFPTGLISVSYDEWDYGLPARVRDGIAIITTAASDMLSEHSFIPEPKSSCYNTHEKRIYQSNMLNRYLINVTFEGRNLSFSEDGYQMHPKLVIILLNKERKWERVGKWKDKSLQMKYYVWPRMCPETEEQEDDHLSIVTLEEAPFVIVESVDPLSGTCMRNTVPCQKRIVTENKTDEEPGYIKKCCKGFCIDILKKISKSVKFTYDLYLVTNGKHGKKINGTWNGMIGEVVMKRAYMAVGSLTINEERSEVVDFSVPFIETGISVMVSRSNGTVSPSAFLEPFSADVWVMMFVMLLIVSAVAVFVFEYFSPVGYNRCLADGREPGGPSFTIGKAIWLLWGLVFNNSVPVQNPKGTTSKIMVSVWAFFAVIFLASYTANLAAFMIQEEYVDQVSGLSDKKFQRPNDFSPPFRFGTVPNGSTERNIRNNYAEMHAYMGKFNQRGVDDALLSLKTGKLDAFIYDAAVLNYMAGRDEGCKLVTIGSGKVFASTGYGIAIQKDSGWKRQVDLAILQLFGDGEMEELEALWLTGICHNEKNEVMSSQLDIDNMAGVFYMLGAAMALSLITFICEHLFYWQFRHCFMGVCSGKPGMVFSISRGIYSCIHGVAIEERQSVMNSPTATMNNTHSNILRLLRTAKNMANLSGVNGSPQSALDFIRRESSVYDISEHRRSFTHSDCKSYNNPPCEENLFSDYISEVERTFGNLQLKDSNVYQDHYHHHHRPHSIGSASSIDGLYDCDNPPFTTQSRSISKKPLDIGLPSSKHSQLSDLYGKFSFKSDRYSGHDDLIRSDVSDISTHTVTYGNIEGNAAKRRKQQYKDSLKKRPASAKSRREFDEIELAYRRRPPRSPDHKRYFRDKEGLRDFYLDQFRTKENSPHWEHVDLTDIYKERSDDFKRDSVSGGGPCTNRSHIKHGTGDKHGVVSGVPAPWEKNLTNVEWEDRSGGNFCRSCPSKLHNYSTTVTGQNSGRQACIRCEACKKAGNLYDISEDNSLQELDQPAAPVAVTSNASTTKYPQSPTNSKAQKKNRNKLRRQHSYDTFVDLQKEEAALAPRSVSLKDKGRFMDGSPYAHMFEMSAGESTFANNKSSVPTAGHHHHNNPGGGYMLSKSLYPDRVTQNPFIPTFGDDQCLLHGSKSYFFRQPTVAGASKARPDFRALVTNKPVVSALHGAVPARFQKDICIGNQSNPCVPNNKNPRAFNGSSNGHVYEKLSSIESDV
PROTOCOL_DETAILS: Fluo-8 Ca2+ flux assay: reversal of Ro 25-6981-mediated suppression of the Ca2+ response to co-agonist (glutamate/glycine)
Format: cell-based
CONDITION_NOTES: reversal of the Ro 25-6981 suppression of the Ca2+ response to co-agonist (glutamate/glycine)
Field: Response Recovered (%). Provide a value for each of the compounds that follow.
State the answer as a number, implicitly in %.

Prompt line: What does the data say about its Response Recovered (%)? Entry: Cn1cc(-c2ccc(F)c(Cl)c2)c2c(=O)n(CC(=O)N3CCCC3)cnc21
Response line: 25

Prompt line: Data request, read-out Response Recovered (%), for CCC1(F)CN(C(=O)Cn2ccc3scc(-c4cnc(Cl)nc4)c3c2=O)C1
Response line: −4.1

Prompt line: Field request: Response Recovered (%) | item: Cn1cc(-c2ccc(Cl)c(C(F)(F)F)c2)c2c(=O)n(CC(=O)N3CC(F)(F)C3)cnc21
Response line: 55

---

TESTED_SYSTEM: HEK293 cells with stable expression of the GRIN1 gene and tetracycline-inducible expression of the GRIN2B gene (NMDA receptor, NR2B) (Homo sapiens)
PROTOCOL_DETAILS: Fluo-8 Ca2+ flux assay: reversal of Ro 25-6981-mediated suppression of the Ca2+ response to co-agonist (glutamate/glycine)
Type: cell-based
CONDITION_NOTES: reversal of the Ro 25-6981 suppression of the Ca2+ response to co-agonist (glutamate/glycine)
MEASUREMENT_TYPE: Response Recovered (%)
Field: numeric (%). Do not append units.

Prompt line: Response Recovered (%) lookup needed for Cn1cc(-n2cc(-c3ccc(F)c(C(F)(F)F)c3)c3c(=O)n(CC(=O)N4CCC(F)C4)ccc32)cn1 (stereo not shown) , thanks.
Response line: 80

Prompt line: Using the record for O=C(Cn1nnc2scc(-c3ccc(Cl)c(C(F)(F)F)c3)c2c1=O)N1CCC(F)C1 (stereo not shown) , report its Response Recovered (%).
Response line: 20

Prompt line: Would you kindly share the measured Response Recovered (%) for O=C(Cn1ccc2scc(-c3cnc(Cl)c(Cl)c3)c2c1=O)N1CC(F)C(F)C1 (stereo not shown) ?
Response line: 28

Prompt line: Consider the compound shown here: O=C(Cn1cc(-c2ncon2)c2scc(-c3ccc(F)c(C(F)(F)F)c3)c2c1=O)N1CCCC1 What is its recorded Response Recovered (%)?
Response line: 14

---

TESTED_SYSTEM: HEK293 cells with stable expression of the GRIN1 gene and tetracycline-inducible expression of the GRIN2B gene (NMDA receptor, NR2B) (Homo sapiens)
PROTOCOL_DETAILS: Fluo-8 Ca2+ flux assay: reversal of Ro 25-6981-mediated suppression of the Ca2+ response to co-agonist (glutamate/glycine)
Assay type: cell-based
CONDITION_NOTES: reversal of the Ro 25-6981 suppression of the Ca2+ response to co-agonist (glutamate/glycine)
Rule: Response Recovered (%) of 40% or more gives satisfied; anything lower gives not satisfied.

Prompt line: Say whether CCN(CC)Cc1cn(CC(=O)N2CCC(F)C2)c(=O)c2c(-c3ccc(F)c(C(F)(F)F)c3)csc12 (stereo not drawn) [Example 117, 2,2,2-trifluoroacetate] shows Response Recovered (%) of 40% or more.
Response line: not satisfied

Prompt line: Reported Response Recovered (%) at or above 40%? CC1(F)CN(C(=O)Cn2ccc3c(c(-c4cnc(F)c(Cl)c4)cn3C3CC3)c2=O)C1 [Example 291]
Response line: satisfied

Prompt line: Could you please find out whether O=C(Cn1cnc2ccn(-c3ccc(Cl)cc3)c2c1=O)N1CC(F)(F)C1 [Example 374] has Response Recovered (%) that meets 40% or exceeds it?
Response line: not satisfied

Prompt line: Check if Response Recovered (%) >= 40% (inclusive). Item: O=C(Cn1ccc2scc(-c3ccc(Cl)c(C(F)(F)F)c3)c2c1=O)N1CC(F)(F)C1 [Example 5]
Response line: satisfied

Prompt line: Could you tell me if the measured Response Recovered (%) of N=C(N)c1cn(CC(=O)N2CCCC2)c(=O)c2c(-c3ccc(F)c(C(F)(F)F)c3)csc12 [Example 113] reaches 40% or more?
Response line: satisfied

Prompt line: # bool: Response Recovered (%) of CCC1(F)CN(C(=O)Cn2ccc3c(c(-c4ccc(F)c(Cl)c4)cn3C3CC3)c2=O)C1 [Example 237] >= 40%
Response line: satisfied

Prompt line: Determine whether this molecule has Response Recovered (%) no lower than 40%: CC1(F)CN(C(=O)Cn2ccc3c(c(-c4ccc(F)c(Cl)c4)cn3C3CC3)c2=O)C1 [Example 285]
Response line: satisfied

Prompt line: # check: Response Recovered (%) of O=C(Cn1cnc2ccn(-c3ccc(Cl)cc3)c2c1=O)N1CCCC1 [Example 376] is greater than or equal to 40%
Response line: not satisfied

Prompt line: Say whether Cn1cc(-c2ccc(Cl)cc2)c2c(=O)n(CC(=O)N3CCCC3C(F)(F)F)cnc21 (stereo not drawn) [Example 153] shows Response Recovered (%) of 40% or more.
Response line: not satisfied

Prompt line: Is it the case that O=C(Cn1ccc2scc(-c3ccc(F)c(Cl)c3)c2c1=O)N1CC(F)(CF)C1 [Example 81] has Response Recovered (%) reaching or exceeding 40%?
Response line: satisfied

Prompt line: Item O=C(Cn1cc(CN2CCC2)c2scc(-c3ccc(F)c(C(F)(F)F)c3)c2c1=O)N1CCC(F)C1 (stereo not drawn) [Example 118] with Response Recovered (%) of 40% or above?
Response line: satisfied

Prompt line: For this molecule, is measured Response Recovered (%) 40% or higher? CCC1(F)CN(C(=O)Cn2ccn3ccc(-c4cnc(Cl)c(C)c4)c3c2=O)C1 [Example 410]
Response line: not satisfied

Prompt line: Could you verify whether the entry COCn1cc(-c2ccc(F)c(C(F)(F)F)c2)c2c(=O)n(CC(=O)N3CC(F)C(F)C3)ccc21 (stereo not drawn) [Example 242] shows Response Recovered (%) of no less than 40%?
Response line: satisfied

Prompt line: Hello, I need to know if CCC1(F)CN(C(=O)Cn2ccc3scc(-c4cnc(F)c(F)c4)c3c2=O)C1 [Example 143] has measured Response Recovered (%) not below 40%. Thanks!
Response line: not satisfied

Prompt line: Please check the record CN(C)CCn1cc(-c2ccc(F)c(C(F)(F)F)c2)c2c(=O)n(CC(=O)N3CCC(F)C3)ccc21 (stereo not drawn) [Example 240] and state if its Response Recovered (%) is at or above 40%.
Response line: not satisfied

Prompt line: Is reported Response Recovered (%) greater than or equal to 40% here: O=C(Cn1ccc2c(c(-c3ccc(Cl)c(Cl)c3)cn2CCF)c1=O)N1CCC(F)C1 (stereo not drawn) [Example 273]
Response line: satisfied

Prompt line: Is Response Recovered (%) at least 40%? Consider O=C(Cn1cnc2csc(-c3ccc(C(F)(F)F)cc3)c2c1=O)N1CCCC1 [Example 356]
Response line: not satisfied

Prompt line: Evaluate CC1(F)CN(C(=O)Cn2ccn3ccc(-c4cnc(Cl)c(Cl)c4)c3c2=O)C1 [Example 404] : Response Recovered (%) at minimum 40%?
Response line: satisfied

Prompt line: Would you say O=C(Cn1ccc2[nH]cc(-c3cnc(Cl)c(Cl)c3)c2c1=O)N1CC(F)C(F)C1 (stereo not drawn) [Example 210] shows Response Recovered (%) at minimum 40%?
Response line: not satisfied

Prompt line: Evaluate O=C(Cn1ncc2scc(-c3ccc(Cl)c(F)c3)c2c1=O)N1CCC(F)C1 (stereo not drawn) [Example 342] : Response Recovered (%) at minimum 40%?
Response line: not satisfied

Prompt line: Does the molecule CC1(F)CN(C(=O)Cn2ccc3scc(-c4cnc(F)c(F)c4)c3c2=O)C1 [Example 139] have recorded Response Recovered (%) that is 40% or more?
Response line: not satisfied

---

Can you tell me Response Recovered (%) for the items I'm about to list?
TESTED_SYSTEM: HEK293 cells with stable expression of the GRIN1 gene and tetracycline-inducible expression of the GRIN2B gene (NMDA receptor, NR2B) (Homo sapiens, UniProt Q13224)
PROTOCOL_DETAILS: Fluo-8 Ca2+ flux assay: reversal of Ro 25-6981-mediated suppression of the Ca2+ response to co-agonist (glutamate/glycine)
Format: cell-based
CONDITION_NOTES: reversal of the Ro 25-6981 suppression of the Ca2+ response to co-agonist (glutamate/glycine)

Prompt line: Fill in: Response Recovered (%) of O=C(Cn1cnc2[nH]nc(-c3ccc(Cl)c(F)c3)c2c1=O)N1CCCC1 [Example 319] is ___
Response line: 4%

Prompt line: // query Response Recovered (%) value for entry O=C(Cn1ccc2scc(-c3ccc(Cl)c(C(F)(F)F)c3)c2c1=O)N1C[C@@H](F)[C@@H](F)C1 [Example 14]
Response line: 99%

Prompt line: // Response Recovered (%) lookup, key: C[Si](C)(C)CCOCn1cc(-c2ccc(F)c(Cl)c2)c2c(=O)n(CC(=O)N3CCCC3)ccc21 [Example 205]
Response line: 59%
